target: human CD33 C276A (human, UniProt P20138 18-364); test: alanine scan, flow cytometry, HEK293-T;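 further: antibody binding to each alanine-substituted CD33 mutant expressed transiently in HEK293-T, read as fluorescence minus background, mean of duplicates, relative to wild-type CD33 set as 100%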
Sequence (P20138 18-364 C276A limits assumed): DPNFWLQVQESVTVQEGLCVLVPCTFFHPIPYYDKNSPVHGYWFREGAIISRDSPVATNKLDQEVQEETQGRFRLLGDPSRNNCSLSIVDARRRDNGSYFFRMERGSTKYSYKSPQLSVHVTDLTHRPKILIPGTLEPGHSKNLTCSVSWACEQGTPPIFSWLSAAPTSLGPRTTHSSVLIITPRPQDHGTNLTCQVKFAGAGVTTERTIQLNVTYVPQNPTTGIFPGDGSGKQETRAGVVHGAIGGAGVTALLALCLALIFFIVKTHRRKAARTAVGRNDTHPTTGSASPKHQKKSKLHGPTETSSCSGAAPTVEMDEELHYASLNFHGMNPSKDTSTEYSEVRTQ
Measured Mean % WT Binding accompanies every entry in the list below.
measure.name: Mean % WT Binding (% WT binding)

1. Refmab #4 (antibody, V domains shown, The alanine scan used IgG or Fab) VH: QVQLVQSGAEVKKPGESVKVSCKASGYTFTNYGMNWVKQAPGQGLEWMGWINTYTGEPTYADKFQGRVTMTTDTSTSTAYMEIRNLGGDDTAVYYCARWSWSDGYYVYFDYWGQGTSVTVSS VL: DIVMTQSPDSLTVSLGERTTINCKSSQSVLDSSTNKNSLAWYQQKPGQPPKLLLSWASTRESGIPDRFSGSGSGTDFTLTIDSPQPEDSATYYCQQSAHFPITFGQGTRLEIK : 96.9
2. Refmab #2 (antibody, V domains shown, The alanine scan used IgG or Fab) VH: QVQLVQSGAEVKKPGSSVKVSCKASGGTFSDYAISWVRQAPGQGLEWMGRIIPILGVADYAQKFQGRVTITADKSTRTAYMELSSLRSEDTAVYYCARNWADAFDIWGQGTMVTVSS VL: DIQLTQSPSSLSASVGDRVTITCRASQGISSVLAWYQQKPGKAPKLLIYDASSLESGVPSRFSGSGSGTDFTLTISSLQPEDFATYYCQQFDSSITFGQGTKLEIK : 103
3. Refmab #3 (antibody, V domains shown, The alanine scan used IgG or Fab) VH: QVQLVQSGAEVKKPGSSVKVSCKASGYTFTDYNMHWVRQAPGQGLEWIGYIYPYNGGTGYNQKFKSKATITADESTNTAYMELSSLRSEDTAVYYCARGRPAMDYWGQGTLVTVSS VL: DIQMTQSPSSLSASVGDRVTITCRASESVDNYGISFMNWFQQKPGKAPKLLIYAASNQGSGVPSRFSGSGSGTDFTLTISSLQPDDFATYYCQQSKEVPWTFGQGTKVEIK : 115
